Test system: THRa homodimer (NR concentration 90 nM)
ASSAY DETAILS: PBM binding z-score (relative to random genomic background probes); higher = stronger binding; sequences stand for … in GC…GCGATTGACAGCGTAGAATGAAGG
Would you mind labelling by PBM binding z-score? At or over 0.1 is Satisfied, under is Not satisfied.

RESIDUE SEQUENCE	CLASS LABEL
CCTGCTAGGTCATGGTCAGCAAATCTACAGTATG	Satisfied
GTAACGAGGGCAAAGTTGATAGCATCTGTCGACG	Not satisfied
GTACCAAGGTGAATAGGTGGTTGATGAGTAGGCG	Satisfied
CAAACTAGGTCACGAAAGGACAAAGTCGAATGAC	Satisfied
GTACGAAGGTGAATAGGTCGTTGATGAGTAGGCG	Not satisfied
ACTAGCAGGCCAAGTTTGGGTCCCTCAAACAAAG	Not satisfied
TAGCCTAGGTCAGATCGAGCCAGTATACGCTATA	Not satisfied
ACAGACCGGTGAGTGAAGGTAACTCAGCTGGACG	Not satisfied
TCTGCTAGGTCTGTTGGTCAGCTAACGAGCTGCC	Not satisfied
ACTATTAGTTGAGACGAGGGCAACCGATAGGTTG	Satisfied
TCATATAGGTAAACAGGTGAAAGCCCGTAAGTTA	Satisfied
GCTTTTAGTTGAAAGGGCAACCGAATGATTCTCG	Not satisfied
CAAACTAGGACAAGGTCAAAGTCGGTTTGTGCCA	Satisfied
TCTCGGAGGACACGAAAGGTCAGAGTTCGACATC	Satisfied
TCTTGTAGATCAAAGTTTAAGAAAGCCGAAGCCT	Not satisfied
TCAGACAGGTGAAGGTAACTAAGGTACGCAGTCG	Satisfied
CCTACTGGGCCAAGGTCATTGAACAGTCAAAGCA	Satisfied
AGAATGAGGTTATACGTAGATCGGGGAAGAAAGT	Satisfied
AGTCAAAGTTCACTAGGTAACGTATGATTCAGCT	Satisfied
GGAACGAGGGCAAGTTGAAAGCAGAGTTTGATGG	Not satisfied
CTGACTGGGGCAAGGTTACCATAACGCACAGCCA	Satisfied
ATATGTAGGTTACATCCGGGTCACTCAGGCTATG	Satisfied
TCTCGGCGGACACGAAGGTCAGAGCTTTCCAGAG	Not satisfied
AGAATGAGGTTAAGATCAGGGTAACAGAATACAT	Satisfied
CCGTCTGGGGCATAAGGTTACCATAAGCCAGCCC	Satisfied
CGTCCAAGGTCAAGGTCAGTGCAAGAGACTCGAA	Satisfied

Taken from the supplement of paper PMC6555819.
